Test system: Sam68 (KHDRBS1)
protocol.notes: Sam68 small-molecule binders, primary screen, biochemical, small-molecule microarray, 635 nm fluorescence (AID 1125);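 also: score merges 667 nm channel intensity with signal to noise over triplicate slides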
experimental.setup: small-molecule microarray binding, higher = more signal
The threshold is inclusive: composite z-score of exactly 1 counts as fulfilled; values below receive not fulfilled.

Would you please look over these solved cases?
Cc1nc2cc(Br)ccc2c(=O)o1 : not fulfilled
CCOC(=O)C1=C[C@@H](C(C)(C)C)N(S(=O)(=O)c2ccc(C)cc2)[C@H]1c1ccc(F)cc1 : fulfilled
[N-]=[N+]=NCc1ccccc1[C@@H]1OC(c2ccc(OCCCO)cc2)=N[C@]1(Cc1ccccc1)C(N)=O : fulfilled
O=C1c2ccccc2[C@](Cc2ccccc2I)(C(=O)NCCN2CCOCC2)[C@H](c2ccc(CO)cc2)N1Cc1ccccc1Cl : fulfilled
NC(=O)NCC#Cc1ccc2c(c1)[C@]1(C(=O)N2)[C@H](C(=O)Nc2nc3ccccc3s2)[C@H]2C(=O)O[C@H](c3ccccc3)[C@H](c3ccccc3)N2[C@@H]1c1ccccc1OCCO : fulfilled
O=C(NC1CC1)[C@@H]1c2ccccc2C(=O)N(Cc2ccccc2Cl)[C@H]1c1ccc(CO)cc1 : fulfilled

input: For this molecule, is measured composite z-score 1 or higher? CC(=O)n1cc(C(O)C2C=CC3C(=O)N(c4ccccc4)C(=O)C3N2Nc2ccc([N+](=O)[O-])cc2)c2ccccc21 (configuration not stated)
output: fulfilled

input: For this molecule, is measured composite z-score 1 or higher? CN1C(=O)C2C=CC(C(O)c3ccc([N+](=O)[O-])cc3)N(N3CCCCC3)C2C1=O (configuration not stated)
output: fulfilled

input: For this molecule, is measured composite z-score 1 or higher? O=C(c1ccccc1)N1Cc2ccccc2C[C@@]2(COC(c3ccc(OCCCO)cc3)=N2)C1=O
output: fulfilled

input: For this molecule, is measured composite z-score 1 or higher? CCCC[C@H]1OB(O)C[C@H]2C1=C(COC)Cn1c(=O)n(-c3ccccc3)c(=O)n12
output: not fulfilled

input: For this molecule, is measured composite z-score 1 or higher? O=C1OCCC/C=C\[C@H]2OC34C=CCN(Cc5ccccc5)C(=O)[C@H]3N(CCCO)C(=O)[C@@H]4C12 (some centres not stated)
output: not fulfilled

---

Give composite z-score for every item shown.
System: Inhibin beta A chain (activin A)
protocol.notes: INHBA (activin A) binders on microarrays, primary screen, biochemical, small-molecule microarray, 635 nm fluorescence scan (AID 1107);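 also: mouse activin A protein probed at 4.33 µg/mL on printed slides; score merges bound-protein fluorescence near 667 nm with spot signal-to-noise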
experimental.setup: small-molecule microarray binding, higher = more signal

Consider the worked cases shown below.
N#Cc1ccc(NN2C(C(O)C(c3ccccc3)c3ccccc3)C=CC3C(=O)N(c4ccccc4)C(=O)C32)cc1 (stereo unspecified) : 0.0017
C=C[C@H](C)[C@@H](OC(=O)Nc1ccc(OC)cc1)c1ccc(O)c2ccccc12 : 0.722
COc1ccc([Si](C)(C)[C@@H]2[C@@H](CCO)O[C@]3(C(=O)N(Cc4ccc(N(C=O)c5ccccc5)cc4)c4ccccc43)[C@H]2C)cc1 : 1.1

Fill in composite z-score for each of the 3 compounds listed.
1. C=C(COC)C(=O)CC[C@@H](OC(C)=O)c1ccc(CO)o1
2. CNS(=O)(=O)c1ccc(C)cc1
3. [N-]=[N+]=NCc1ccccc1[C@@H]1OC(c2ccc(OCCCO)cc2)=N[C@]1(Cc1ccccc1)C(=O)NCC(O)CO (stereo partly specified)

output:
[1.38, -1.89, 0.68]
